Just for reference, paper PMC12509006 is where these values come from.

target: A. baumannii ATP synthase (Acinetobacter baumannii); construct: endogenous electron transport chains of inverted inner membrane vesicles were energized with NADH; endogenous in cells; host or cells: inverted inner membrane vesicles prepared from A. baumannii ATCC 17978 cells; assay: AB ATP synthase inhibition: NADH-driven ATP synthesis in inverted inner membrane vesicles, luciferin/luciferase readout; assay type: biochemical; conditions: inverted inner membrane vesicles, 0.0625-64 µg/mL, n≥3, Table S1; read-out: AB ATP Synthase Inhibition IC50 (converted)
Label key: met means IC50 under 1000 nM; not met means IC50 of 1000 nM or more.

Solved entries:
# smiles.structure, group.label
measured = [
    ("CN1CCN(CCNCc2cc(-c3ccc(F)cc3)cnc2SCc2ccccc2)CC1", "not met"),
    ("CCN1CCC(CCNCc2cc(-c3ccc(OC)cc3)cnc2SCc2ccccc2)CC1", "met"),
    ("CN1CCN(CCNCc2cccnc2SCc2ccccc2)CC1", "not met"),
    ("Brc1cnc(SCc2ccccc2)c(CNCCC2CCN(C3CCCC3)CC2)c1", "not met"),
    ("CN1CCN(CCNCc2cc(Br)cnc2SCc2ccccc2)CC1", "not met"),
]

Enquiry: Below 1000 nM on IC50? Entry `c1ccc(CSc2ncccc2CNCc2ccc(CN3CCCC3)cc2)cc1`
Return: not met

Enquiry: Consider the compound `CN(C)c1ccc(-c2cnc(SCc3ccccc3)c(CNCCC3CCN(C4CCCC4)CC3)c2)cc1` . Is its IC50 strictly less than 1000 nM?
Return: not met

Enquiry: Quick check: IC50 of `c1ccc(CSc2ncccc2CNCCC2CCN(C3CCCC3)CC2)cc1` under 1000 nM?
Return: not met

Enquiry: Criterion: IC50 strictly below 1000 nM. Is it met by `CCN1CCC(CCNCc2cc(-c3ccc(F)cc3F)cnc2SCc2ccccc2)CC1` ?
Return: not met

Enquiry: Does the reported IC50 of the following compound sit strictly below 1000 nM? `Fc1ccc(-c2cnc(SCc3ccccc3)c(CNCCC3CCN(C4CCCC4)CC3)c2)cc1`
Return: not met

====

biological target: A. baumannii ATP synthase (Acinetobacter baumannii, UniProt A3M139); construct: endogenous electron transport chains of inverted inner membrane vesicles were energized with NADH; endogenous in cells; host or cells: inverted inner membrane vesicles prepared from A. baumannii ATCC 17978 cells; assay: AB ATP synthase inhibition: NADH-driven ATP synthesis in inverted inner membrane vesicles, luciferin/luciferase readout; format: biochemical; settings: fit of ATP synthesis dose response curve
Sequence (A3M139 whole entry): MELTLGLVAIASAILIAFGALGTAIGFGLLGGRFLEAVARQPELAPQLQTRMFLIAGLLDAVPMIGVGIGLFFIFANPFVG
readout: Hill coefficient (Hill slope)
Give bare numbers.

Below, 5 compounds whose answers are already recorded.
# compound, Hill coefficient (Hill slope)
rows = [
    ("c1ccc(CSc2ncc(-c3ccccc3)cc2CNCCC2CCN(C3CCCC3)CC2)cc1 [WSA 302]", -0.8),
    ("CCN1CCC(CCNCc2cc(-c3ccc(F)cc3)cnc2SCc2ccccc2)CC1 [WSA 307]", -0.8),
    ("Cc1ccc(-c2cnc(SCc3ccccc3)c(CNCCN3CCN(C)CC3)c2)cc1 [WSA 280]", -0.8),
    ("CCN1CCC(CCNCc2cccnc2SCc2ccccc2)CC1 [WSA 264]", -0.8),
    ("CCN1CCC(CCNCc2cc(-c3ccc(OC)cc3)cnc2SCc2ccccc2)CC1 [WSA 305]", -0.6),
]

Parameter requested: Hill coefficient (Hill slope). Apply to each item below.
1. CN1CCN(CCNCc2cc(Br)cnc2SCc2ccccc2)CC1 [WSA 271]
2. Fc1ccc(-c2cnc(SCc3ccccc3)c(CNCCC3CCN(C4CCCC4)CC3)c2)c(F)c1 [WSA 292]
3. Cc1ccc(-c2cnc(SCc3ccccc3)c(CNCCC3CCN(C4CCCC4)CC3)c2)cc1 [WSA 289]
4. CN(C)c1ccc(-c2cnc(SCc3ccccc3)c(CNCCC3CCN(C4CCCC4)CC3)c2)cc1 [WSA 303]
5. CN1CCN(CCNCc2cc(-c3ccc(F)cc3F)cnc2SCc2ccccc2)CC1 [WSA 274]
6. CCN1CCC(CCNCc2cc(-c3ccccc3)cnc2SCc2ccccc2)CC1 [WSA 304]
7. c1ccc(CSc2ncc(-c3ccccc3)cc2CNCc2ccc(CN3CCCC3)cc2)cc1 [WSA 294]
8. COc1ccc(-c2cnc(SCc3ccccc3)c(CNCc3ccc(CN4CCCC4)cc3)c2)cc1 [WSA 296]

Return:
1. -0.7
2. -1.1
3. -0.7
4. -1.2
5. -0.8
6. -0.7
7. -0.7
8. -0.6
